Test system: GH3-TRE-Luc cell line
Experimental conditions: read-out: AC50 (uM) modified / 1000; Tox21_110001=Tox21_202986; viability, 1 nM T3 present, 24 h
Attribute measured: CC50 (µM)
Just the number in µM, nothing appended.

Which CC50 value is on record for Oc1cccc2cccnc12 [8-Hydroxyquinoline] ?
3.28

----------
System: GH3-TRE-Luc cell line
Experimental conditions: read-out: AC50 (uM) modified / 1000; Tox21_110001=Tox21_202624; viability, 1 nM T3 present, 24 h
Attribute measured: CC50 (µM)
Give just the number in µM; leave the unit off.

Request body: readout CC50, system GH3-TRE-Luc cell line, query `CCCCCCCCCCn1cc[n+](C)c1` . Return the value.
11.4
